- Tested on: MS2 coat protein
- testDetails: apparent Kd, MS2 coat protein; higher = weaker binding; RNA-MaP array
- assayConditions: ligand present: flavin mononucleotide; designed as: OFF switch for flavin mononucleotide
Mark no (0) for apparent Kd values under 20 nM, and yes (1) for everything at or above.

Would you please look over these solved cases?
- residueCodes: "CGGUGUGCAGAGGAUAUCGGCGUUUUCUCACAUCGAGAAGGCUGCACAUGAGGAUCACCCAUGUAUCUUUAGGA"
  qualitativeLabel: "yes (1)"
- residueCodes: "UGGACUUCAGGAUAUACAUGAGGAUCACCCAUGUAUACGUGUAUGAUCCCAGAAACAAGUAGAAGGGAAAGCCG"
  qualitativeLabel: "no (0)"

Prompt: I'd appreciate it if you could say whether GAUCUGGCGGUGAGGAUAUAUAUCAAAUGCAAGGCAUAGAAGGCACAUGAGGAUCACCCAUGUCUGCACCAGGG has apparent Kd at least equal to 20 nM.
Response: no (0)

Prompt: Subsequent entry: GGACUAUCAGGAUAUACAUGAGGAUCACCCAUGUACUUUAGGUAAUGGGACUACACCGGUAGAAGGGAUUAAAG
Response: yes (1)

Prompt: Subsequent entry: GGACAUGAGGAUCACCCAUGUAGUGGAGGGCUCAGGCUCGCAAGAAGGUUAAGAAUAUAGUCAAUAAAGGAUAUUGAGGGCCGA
Response: no (0)

Prompt: Subsequent entry: UAAAGAGAAGGAUAUACAGGAAGAAAAGCCUCACAAUCGUAACAUGAGGAUCACCCAUGUAGAAGGACUAACAA
Response: yes (1)

Prompt: Subsequent entry: UACAAACCGUUAGAUGGGACAUGAGGAUCACCCAUGUAUAACAGAAGGUCAAAUUGAAACAUUCAGAAGGAUAUGUCAUACAAA
Response: yes (1)

Prompt: Subsequent entry: ACCAGGUCAGGAUAUAGUUGGCAUUUGGCUGUGCCUCACUACUAGAAGGGACAUGAGGAUCACCCAUGUUGGGC
Response: yes (1)
